- Test target: USP7asoc (active site only cysteine) (Homo sapiens, UniProt Q93009, C300S/C315S/C334S/C478S/C488S/C510S)
- Construct: (208‐560, C300/315/334/448/478/510S); made in house
- Sequence (Q93009 with tags, fused parts or gaps C300S/C315S/C334S/C478S/C488S/C510S): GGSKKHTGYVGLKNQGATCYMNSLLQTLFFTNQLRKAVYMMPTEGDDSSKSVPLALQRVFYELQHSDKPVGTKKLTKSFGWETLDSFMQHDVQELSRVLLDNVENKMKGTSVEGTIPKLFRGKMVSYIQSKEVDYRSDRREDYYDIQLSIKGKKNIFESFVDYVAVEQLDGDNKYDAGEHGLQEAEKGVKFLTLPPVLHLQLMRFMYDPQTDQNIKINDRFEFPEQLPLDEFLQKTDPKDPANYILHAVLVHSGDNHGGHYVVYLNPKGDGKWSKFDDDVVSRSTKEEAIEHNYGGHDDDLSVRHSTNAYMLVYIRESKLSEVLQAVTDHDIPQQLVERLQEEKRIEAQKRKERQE
- Experiment description: Differential scanning fluorimetry (DSF), melting temperature shift of USP7asoc mutant
- Assay type: binding
- Experimental parameters: 8 µM protein, 250 µM compound (1:31.25), 4 h incubation at 20°C
Metric: ∆T m ± SD USP7asoc (°C)
Answers are plain numbers, in °C.

The cases that follow already have their ∆T m ± SD USP7asoc on record.
Molecule smiles: CCCn1cc(-c2cccc3cnc(Nc4nc(Cl)ccc4[N+](=O)[O-])cc23)cn1
Reported measurement: 0.45
--
Molecule smiles: O=[N+]([O-])c1ccc(F)nc1Nc1cc2c(-c3ccc(-c4cccnc4)cc3)cccc2cn1
Reported measurement: 0.35
--
Molecule smiles: Cn1cc(-c2cccc3cnc(Nc4nc(Cl)ccc4[N+](=O)[O-])cc23)cn1
Reported measurement: 0.10
--
Molecule smiles: O=[N+]([O-])c1ccc(Cl)nc1Nc1cc2c(-c3ccc4ccccc4c3)cccc2cn1
Reported measurement: 0.38

List the reported ∆T m ± SD USP7asoc of each compound below.
1. Cn1ccc(-c2cccc3cnc(Nc4nc(F)ccc4[N+](=O)[O-])cc23)c1
2. CCCn1cc(-c2cccc3cnc(Nc4nc(F)ccc4[N+](=O)[O-])cc23)cn1
3. CCn1cc(-c2cccc3cnc(Nc4nc(Cl)ccc4[N+](=O)[O-])cc23)cn1

1. 0.45
2. 0.03
3. 0.25

List the reported ∆T m ± SD USP7asoc of each compound below.
1. Cn1ccc(-c2cccc3cnc(Nc4nc(Cl)ccc4[N+](=O)[O-])cc23)c1
2. O=[N+]([O-])c1ccc(Cl)nc1Nc1cc2c(-c3ccc(-c4cccnc4)cc3)cccc2cn1
3. CCn1cc(-c2cccc3cnc(Nc4nc(F)ccc4[N+](=O)[O-])cc23)cn1
4. O=[N+]([O-])c1ccc(F)nc1Nc1cc2c(-c3ccc4ccccc4c3)cccc2cn1

0.35
0.35
0.20
0.25
